- Test system: A498 renal
- assay: NCI tumour cell line growth inhibition, 48 h
measurement-label: TGI

Worked cases, TGI given:
Notebook: c1ccc2cc(Cn3c(-c4cccc5ccccc45)[n+](Cc4ccc5ccccc5c4)c4c5ccccc5c5ccccc5c43)ccc2c1 , TGI read as 0.779 µM

// TGI value for CN(C)CCNC(=O)c1cccc2c(NC(CCCN=C(N)N)C(=O)O)c3ccccc3nc12 (centres undefined) : 61.3 µM

Measured TGI, C[C@]12CC[C@@H]3c4cc(C=O)c(OCc5ccccc5)cc4CC[C@H]3[C@@H]1CCC2OCc1ccccc1 (some centres undefined) : > 100 µM

Entry CCc1c[n+]2c(cc1C1=CN3c4ccccc4[C@]45CCN6C/C(=C/CO)[C@H](C[C@H]64)[C@@H]([C@@H]1O)[C@H]35)-c1[nH]c3ccccc3c1CC2 — recorded TGI = > 50 µM

Lookup result for S=C1NC(c2ccccc2)NC(c2ccccc2)S1 (centres undefined) ; measured TGI: > 100 µM

New cases:
So for CCCCCCCC(=O)[O-].N.N.N.N.N.[Co+3].[O-][Cl+3]([O-])([O-])[O-] , the logged TGI turned out to be > 100 µM

Measured TGI of CN1c2cccc[c]2[Sn]([CH3])([CH3])[c]2ccccc21 : 0.255 µM

Input [N-]=[N+]=NCCCn1c2c(c3ccccc3c1=O)C(=O)c1cc3c(cc1-2)OCO3 . Output TGI: > 100 µM

For O=C1/C(=C/c2ccc(C(=O)O)cc2)CNC/C1=C\c1ccc(C(=O)O)cc1 the molecule record lists TGI as > 100 µM

Value of TGI reported for the molecule N#Cc1cc([N+](=O)[O-])ccc1NC(=O)C(=O)Nn1c(=S)[nH]c2ccccc2c1=O is > 100 µM

Memo: CC#CC#C/C=C1/C=CC2(CCCCO2)O1 (centres undefined) , reported TGI: > 100 µM

According to the records, this molecule COC(=O)[C@@]1(Cc2ccc(OC(C)=O)cc2)Cc2cc3ccccc3n2N1 displays TGI of 87.3 µM

// COC(=O)C12CCC(CC1=O)C2(C)C (centres undefined) : TGI value = > 100 µM

TGI reported for this molecule CCN1CCC(O)(/C=C/c2ccc(Cl)c(Cl)c2)C(C(=O)/C=C/c2ccc(Cl)c(Cl)c2)C1 (centres undefined) : 2.91 µM

###

- Test system: 786-0 renal
- assay: NCI tumour cell line growth inhibition, 48 h
# TGI per record follows

Use these answered entries as a reference point.
Value (TGI, 786-0 renal) for record CCOP(=O)(OCC)C(Cc1cn(S(=O)(=O)c2ccc(C)cc2)cn1)C(=O)O (stereo not drawn) = > 100 µM

Record for COc1ccc(/C=N/NC(=O)NCCNCCO)cc1 under target or system 786-0 renal: TGI reported as > 100 µM

Continuing:
[N-]=[N+]=NCCCn1c2c(c3ccccc3c1=O)C(=O)c1cc3c(cc1-2)OCO3 tested on 786-0 renal gave TGI: > 100 µM

###

- Test system: SK-MEL-28 melanoma
- assay: NCI tumour cell line growth inhibition, 48 h; in the data active = GI50 below about 0.43 µM; inactive = the rest
# valid calls are 1 for active, -1 for inactive; nothing else

Answered cases to consult:
Outcome logged for O=C(/C=C/c1cc2ccccc2[nH]c1=O)c1ccc(O)cc1 in this assay:
-1

Please let me know the test result on file for N/C(=N/O)NOCCC(N)C(=O)O (configuration not stated) .
-1

What call does the record list for O=C(Nc1n[nH]c2cc(-c3ccc(F)cc3)ccc12)C1CC1 ?
-1

Hi team, can someone confirm the assay call for O=[N+]([O-])c1ccc(NC(c2ccccc2)c2ccc3cccnc3c2O)cc1 (configuration not stated) ?
-1

Recorded call for O=c1[nH]c(=O)n(C2C[C@@H](O)[C@@H](CO)O2)cc1F (some centres not stated) ?
-1

Others:
Recorded call for CN1c2cccc[c]2[Sn]([CH3])([CH3])[c]2ccccc21 ?
1

I'd appreciate the recorded outcome for CC(C)Cc1cc(-c2cccn2C)c(C#N)c(=O)[nH]1 from this test.
-1

###

- Tested on: EKVX NSCLC
- assay: NCI tumour cell line growth inhibition, 48 h
measurement-label: TGI

Some compounds with known TGI results, for comparison:
Summary for this compound, C1=Nc2ccc(cc2)-c2ccc(cc2)N=Cc2ccccc2OCc2cccc(n2)COc2ccccc21 : TGI is > 100 µM

The recorded TGI for Nc1nc2c(nnn2C2C=C(CO)C(O)C2O)c(=O)[nH]1 (stereo unspecified) is > 100 µM

Field TGI (entry Clc1cccc(C=NC23CC4CC(CC(C4)C2)C3)c1Cl ) reads > 10 µM

Noted for Nc1ccc(Oc2ccc(C34CC5CC(C3)CC(c3ccc(Oc6ccc(N)c(O)c6)cc3)(C5)C4)cc2)cc1O : its TGI reads 3.63 µM

Short answer for Nc1[nH]c(=S)[nH]c(=O)c1N=Nc1c(Br)cc(S(N)(=O)=O)cc1Br : TGI was > 100 µM

Pending compound:
For record CC1NCCC(CC(=O)O)C1CC(=O)O (stereo unspecified) the listed TGI is > 100 µM

###

- Test system: SK-OV-3 ovarian
- assay: NCI tumour cell line growth inhibition, 48 h
# maps each entry to its TGI

Record excerpt, results attached:
For this compound ( CC(=O)Nc1ccc2c(c1)[nH]c(=O)c1cc(NC(C)=O)ccc12 ), measured TGI is > 100 µM

Note to self: TGI recorded for C#CCn1c(=O)c2cc(OC)c(OC)cc2n(CC#C)c1=O was > 10 µM

# TGI (compound: CC(C)(C)c1cc([Si](C)(C)C)c(C#N)c([Si](C)(C)C)c1 ) is > 100 µM

# next compound below
Please fill in: TGI reported for CCc1c[n+]2c(cc1C1=CN3c4ccccc4[C@]45CCN6C/C(=C/CO)[C@H](C[C@H]64)[C@@H]([C@@H]1O)[C@H]35)-c1[nH]c3ccccc3c1CC2 = > 50 µM

###

Here the recorded TGI is given for each entry.
- Tested on: HOP-92 NSCLC
- assay: NCI tumour cell line growth inhibition, 48 h
Where a SMILES comes first, the peptide text is derived from it. [ ]: non-standard residue; d: D form. The star is where a group is joined. Ac5c = NC1(C(=O)O)CCCC1; Boc = CC(C)(C)OC(=O)*; tBu = CC(C)(C)*

Guide cases for TGI, answers given:
NC1=NN(c2ccccc2)C(=O)C1/C(=N\NC(=O)c1cc2ccccc2cc1O)C(=O)Nc1ccc(Cl)c(Cl)c1 (centres undefined) yielded TGI of 92 µM

# TGI (compound: COc1ccc(C2=Nn3c(nc4sc5c(c4c3=O)CCCC5)SC2)cc1 ) is > 100 µM

TGI for S=C1NC(c2ccccc2)NC(c2ccccc2)S1 (centres undefined) is > 100 µM

The value of TGI measured for the compound Cc1cc(C2CC(O)C(CO)O2)c(Br)cc1Br (centres undefined) turned out to be > 100 µM

Documented TGI of CC(OC(C)(C)C)C1NC(=O)C(CCCCNC(=O)OC(C)(C)C)NC(=O)C(Cc2c[nH]c3ccccc23)NC(=O)C(Cc2ccccc2)NC(=O)C2(CCCC2)NC(=O)C(Cc2ccccc2)NC1=O (centres undefined) (cyclo([Ac5c]FWK(Boc)T(tBu)F); configuration not given here) : 67.1 µM

The measured TGI associated with COC(=O)[C@@]1(Cc2ccc(OC(C)=O)cc2)Cc2cc3ccccc3n2N1 reads > 100 µM

---
Recorded TGI (compound OC(CBr)C(O)C(O)C(O)CBr (centres undefined) ): > 100 µM

Form field TGI, entry Nc1cc2c3ccccc3ccc2c2ccccc12 : > 100 µM

// sample CC1=NN(c2ccccc2)C(=O)C1N=Nc1ccc(Br)cc1C (centres undefined) , its TGI was > 100 µM

###

- Tested on: LOX IMVI melanoma
- assay: NCI tumour cell line growth inhibition, 48 h
Readings of TGI for the listed molecules

Lab note: COc1ccc(CC2OC3(CCCCC3)CC3CCCCN32)cc1 (centres undefined) gave TGI of > 100 µM

More entries:
Entry under test: O=C1C2Cc3ccccc3CN2C(=O)N1CN1CCCCC1 (centres undefined) . Its TGI was > 100 µM

Per the record, Cc1nc(-n2nc(-c3ccccc3)cc2-c2ccccc2)sc1C(/C=C\c1ccc([N+](=O)[O-])cc1)=N/NC(=S)NN has TGI of > 66.5 µM

Record O/N=C1/C(=C/c2ccc(Br)cc2)CCCC1C(NO)c1ccc(Br)cc1 (centres undefined) . Reported TGI: 35.5 µM

###

- Test system: SK-MEL-2 melanoma
- assay: NCI tumour cell line growth inhibition, 48 h
Recorded TGI, one value per entry.

# annotated cases, reported TGI shown
Per the records, this molecule ( CC(C)(C)c1cc([Si](C)(C)C)c(C#N)c([Si](C)(C)C)c1 ) has TGI equal to > 100 µM

Short answer for Clc1cccc(C=NC23CC4CC(CC(C4)C2)C3)c1Cl : TGI was > 10 µM

Measured TGI of COc1ccc(NC(=O)CC2SC(=Nc3ccc(Cl)cc3C)NC2=O)c([N+](=O)[O-])c1 (centres undefined) : > 100 µM

Continuing:
Entry NC1=NN(c2ccccc2)C(=O)C1/C(=N\NC(=O)c1cc2ccccc2cc1O)C(=O)Nc1ccc(Cl)c(Cl)c1 (centres undefined) ; TGI = > 100 µM
